# System: human APOE RNA
# measurement protocol: Activity in APOE C57BL/6NTac-Apoeem7250 knock-in mice, single ICV bolus, 8 weeks (Example 11)
# Type: in vivo
# measurement parameters: cortex; single ICV bolus 300 μg; 8 weeks post treatment; normalized to mouse Ppia
Strand notation (5' to 3'): a small letter for the sugar, then the base; units joined by * are phosphorothioate-linked, units joined directly phosphodiester-linked; [ ] holds rarer units or linkages, { } end groups; capitals alone tell only the bases. [ms] = mesyl phosphoramidate linkage; e = 2'-O-(2-methoxyethyl) (MOE); k = constrained ethyl (cEt); [5mC] = 5-methylcytosine; d = 2'-deoxy (DNA)
APOE RNA (% control) Cortex less than 40 % control is fulfilled; APOE RNA (% control) Cortex greater than or equal to 40 % control is not fulfilled.

>  <substance>
1778113 (eA*e[5mC]eTeTkG*kG*dT*dG[ms]dA[ms]dA*dT*d[5mC]*dT*dT*dT*dA[ms]eT*eT*eA*eA; antisense) [Compound 1778113]

>  <qualitative label>
not fulfilled

$$$$
>  <substance>
1652902: 6-10-4 MOE gapmer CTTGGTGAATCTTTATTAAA, linkages sooooossssssssssoss (antisense e[5mC]*eTeTeGeGeTdG*dA*dA*dT*d[5mC]*dT*dT*dT*dA*dT*eTeA*eA*eA) [compound 1652902]

>  <qualitative label>
not fulfilled

$$$$
>  <substance>
1809745: mixed MOE/cEt gapmer CTTGGTGAATCTTTATTAAAC, sugar eeeeekddddddddddeeeee, linkages zsoooszzsssssszsoosz (e[5mC][ms]eT*eTeGeGkT*dG[ms]dA[ms]dA*dT*d[5mC]*dT*dT*dT*dA[ms]dT*eTeAeA*eA[ms]e[5mC]) [compound 1809745]

>  <qualitative label>
fulfilled

$$$$
>  <substance>
1810069: mixed MOE/cEt gapmer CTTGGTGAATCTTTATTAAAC, sugar eeeeekddddddddddeeeee, linkages zsossszzzssssszsoosz (e[5mC][ms]eT*eTeG*eG*kT*dG[ms]dA[ms]dA[ms]dT*d[5mC]*dT*dT*dT*dA[ms]dT*eTeAeA*eA[ms]e[5mC]) [compound 1810069]

>  <qualitative label>
fulfilled

$$$$
>  <substance>
1809818 (eT*eTeGkG*dT*dG[ms]dA[ms]dA[ms]dT*d[5mC]*dT*dT*dT*dA[ms]kT*kTeAeA*eA*e[5mC]; antisense) [Compound 1809818]

>  <qualitative label>
not fulfilled

$$$$
>  <substance>
1693050: 5-10-5 MOE gapmer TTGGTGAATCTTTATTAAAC, linkages soosszzzsssssssosss (antisense eT*eTeGeG*eT*dG[ms]dA[ms]dA[ms]dT*d[5mC]*dT*dT*dT*dA*dT*eTeA*eA*eA*e[5mC]) [compound 1693050]

>  <qualitative label>
not fulfilled

$$$$
>  <substance>
1778130: modified oligonucleotide complementary to human APOE RNA (eA*e[5mC]eTeTeG*kG*dT*dG[ms]dA[ms]dA*dT*d[5mC]*dT*dT*dT*dA[ms]kTkT*eA*eA; antisense) [compound 1778130]

>  <qualitative label>
fulfilled

$$$$
>  <substance>
1809691: mixed MOE/cEt gapmer CTTGGTGAATCTTTATTAA, sugar eeeekddddddddddkeek, linkages sosssszzzssssszoss (e[5mC]*eTeT*eG*kG*dT*dG[ms]dA[ms]dA[ms]dT*d[5mC]*dT*dT*dT*dA[ms]kTeT*eA*kA) [compound 1809691]

>  <qualitative label>
fulfilled

$$$$

This collection of values is drawn from patent US20250353873A1.
